Tested target: Peroxisome proliferator-activated receptor gamma (Homo sapiens, UniProt P37231)
Sequence (P37231 whole entry, the tested form may be a part): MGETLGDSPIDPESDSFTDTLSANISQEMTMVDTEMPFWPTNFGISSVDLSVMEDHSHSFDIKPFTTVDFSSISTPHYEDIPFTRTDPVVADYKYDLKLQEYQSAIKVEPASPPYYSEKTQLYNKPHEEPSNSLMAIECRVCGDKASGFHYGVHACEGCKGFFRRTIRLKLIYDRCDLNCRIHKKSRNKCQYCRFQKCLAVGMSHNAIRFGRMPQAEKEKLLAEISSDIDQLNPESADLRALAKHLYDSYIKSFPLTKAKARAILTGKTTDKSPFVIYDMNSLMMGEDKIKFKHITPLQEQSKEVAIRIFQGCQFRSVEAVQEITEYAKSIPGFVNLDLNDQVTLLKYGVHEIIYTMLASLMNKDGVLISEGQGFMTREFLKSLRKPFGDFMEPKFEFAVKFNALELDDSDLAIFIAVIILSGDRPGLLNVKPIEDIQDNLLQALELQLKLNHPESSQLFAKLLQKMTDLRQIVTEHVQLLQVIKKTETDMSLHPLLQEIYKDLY
Assay protocol: Agonist activity at human PPARgamma receptor expressed in HEK293 cells by GAL4 transactivation assay
Below is a list of entries, each paired with its recorded EC50 value.
Metric: EC50 (µM)

CC(C)(C)c1ccc(CN(CCOc2ccc(CCC(=O)O)cc2)c2nc3ccccc3s2)cc1: 6.34
O=C(O)CCc1ccc(OCCN(Cc2ccc(C(F)(F)F)cc2)c2nc3ccccc3s2)cc1: 3.69

---

Tested target: Peroxisome proliferator-activated receptor delta (Homo sapiens, UniProt Q03181)
Sequence (Q03181 whole entry): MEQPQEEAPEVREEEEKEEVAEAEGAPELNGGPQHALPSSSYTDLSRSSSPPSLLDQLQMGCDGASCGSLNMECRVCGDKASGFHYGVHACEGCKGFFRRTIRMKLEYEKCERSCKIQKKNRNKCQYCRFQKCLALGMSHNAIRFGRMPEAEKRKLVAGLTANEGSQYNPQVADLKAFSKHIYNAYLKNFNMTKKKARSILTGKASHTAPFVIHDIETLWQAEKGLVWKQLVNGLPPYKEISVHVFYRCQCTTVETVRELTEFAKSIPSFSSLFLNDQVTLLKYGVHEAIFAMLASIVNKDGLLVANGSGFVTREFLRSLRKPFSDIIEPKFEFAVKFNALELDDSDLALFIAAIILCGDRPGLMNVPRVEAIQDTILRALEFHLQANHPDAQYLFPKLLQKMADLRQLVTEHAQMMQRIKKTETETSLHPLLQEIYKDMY
pEC50: −log10 of the molar value.
Metric: pEC50

O=C(O)CCc1ccc(OCCN(Cc2cccs2)c2nc3ccccc3s2)cc1: 5.76
CC(C)(C)c1ccc(CN(CCOc2ccc(CCC(=O)O)cc2)c2nc3ccccc3s2)cc1: 5.31
Cc1cc(OCCN(Cc2ccccc2)c2nc3ccccc3s2)ccc1CCC(=O)O: 5.93
O=C(O)CCc1ccc(OCCN(Cc2ccc(C(F)(F)F)cc2)c2nc3ccccc3s2)cc1: 6.03
O=C(O)CCc1ccc(OCCCN(Cc2ccccc2)c2nc3ccccc3s2)cc1: 5.59
Cc1ccc2nc(N(CCOc3ccc(CCC(=O)O)cc3)Cc3ccccc3)sc2c1: 5.58
O=C(O)CCc1ccc(OCCN(Cc2ccccc2)c2nc3ccc(Cl)cc3s2)cc1: 5.87
CCc1cc(OCCN(Cc2ccccc2)c2nc3ccccc3s2)ccc1CCC(=O)O: 5.53
O=C(O)CCc1ccc(OCCN(Cc2ccccc2)c2nc3ccccc3s2)cc1: 5.55
Cc1cc(CCC(=O)O)ccc1OCCCN(Cc1cccs1)c1nc2ccc(Cl)cc2s1: 6.41
